- testedOn: Sodium-dependent serotonin transporter (Homo sapiens, UniProt P31645)
- Sequence (P31645 whole entry): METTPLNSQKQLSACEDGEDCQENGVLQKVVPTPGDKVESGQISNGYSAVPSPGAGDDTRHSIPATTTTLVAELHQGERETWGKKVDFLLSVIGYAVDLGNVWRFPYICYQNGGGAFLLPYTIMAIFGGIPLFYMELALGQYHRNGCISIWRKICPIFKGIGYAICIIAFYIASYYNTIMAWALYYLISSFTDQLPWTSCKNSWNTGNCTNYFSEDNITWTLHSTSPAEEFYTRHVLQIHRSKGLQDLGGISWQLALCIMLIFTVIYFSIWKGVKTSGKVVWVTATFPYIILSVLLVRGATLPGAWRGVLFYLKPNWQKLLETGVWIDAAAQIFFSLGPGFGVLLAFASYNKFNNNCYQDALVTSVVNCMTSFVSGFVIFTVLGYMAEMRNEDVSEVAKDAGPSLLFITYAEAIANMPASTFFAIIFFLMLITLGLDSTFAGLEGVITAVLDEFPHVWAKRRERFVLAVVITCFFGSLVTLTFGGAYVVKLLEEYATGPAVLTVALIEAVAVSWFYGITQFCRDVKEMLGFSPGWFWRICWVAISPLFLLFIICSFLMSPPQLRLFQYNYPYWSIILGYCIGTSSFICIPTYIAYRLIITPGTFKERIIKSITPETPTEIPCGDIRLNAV
pIC50: −log10 of the molar value.
The threshold is inclusive: pIC50 of exactly 6 counts as Satisfied; values below receive Not satisfied.

> print(dat)
                                  molsmiles    answerlabel
1  CCCN(C)CCC[C@]1(c2ccc(F)cc2)OCc2cc(C#N)ccc21  Not satisfied
2  CCN(C)CCC[C@@]1(c2ccc(F)cc2)OCc2cc(C#N)ccc21      Satisfied
3  CCCN(C)CCC[C@@]1(c2ccc(F)cc2)OCc2cc(C#N)ccc21      Satisfied
4  CCCCN(C)CCC[C@@]1(c2ccc(F)cc2)OCc2cc(C#N)ccc21      Satisfied
5  CCN(C)CCC[C@]1(c2ccc(F)cc2)OCc2cc(C#N)ccc21  Not satisfied
6  CCCCCN(C)CCC[C@@]1(c2ccc(F)cc2)OCc2cc(C#N)ccc21      Satisfied

Source of measurements: ChEMBL document CHEMBL4000221
